Items are presented alongside their recorded pIC50.
# TARGET OF ASSAY: butyrylcholinesterase (BuChE) (Rattus norvegicus, UniProt Q9JKC1)
# Construct: total cholinesterase (ChE) and butyrylcholinesterase (BuChE) activities in rat brain homogenates; from tissue; host or cells: brain homogenate (10% w/v) of adult Wistar rats
# Sequence (Q9JKC1 24-597): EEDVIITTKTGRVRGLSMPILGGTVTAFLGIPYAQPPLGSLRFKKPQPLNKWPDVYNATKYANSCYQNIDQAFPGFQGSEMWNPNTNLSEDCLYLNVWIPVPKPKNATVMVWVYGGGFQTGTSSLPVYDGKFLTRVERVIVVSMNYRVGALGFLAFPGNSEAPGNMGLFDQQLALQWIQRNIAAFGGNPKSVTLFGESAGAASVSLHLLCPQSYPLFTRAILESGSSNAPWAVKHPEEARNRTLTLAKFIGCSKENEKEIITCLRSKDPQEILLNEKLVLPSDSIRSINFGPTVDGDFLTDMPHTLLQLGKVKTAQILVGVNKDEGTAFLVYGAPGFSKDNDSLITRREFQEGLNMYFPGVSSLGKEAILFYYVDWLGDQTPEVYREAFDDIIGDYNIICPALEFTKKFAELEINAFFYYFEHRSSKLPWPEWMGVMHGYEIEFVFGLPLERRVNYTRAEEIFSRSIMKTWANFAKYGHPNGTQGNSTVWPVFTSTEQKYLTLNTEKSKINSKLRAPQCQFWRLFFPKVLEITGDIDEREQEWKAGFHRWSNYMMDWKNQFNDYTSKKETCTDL
# RUN DESCRIPTION: Butyrylcholinesterase inhibition in rat brain homogenates (Ellman)
# Type: biochemical
# CONDITION DESCRIPTION: mean SEM, n=3 in triplicates
# Protocol: Cholinesterase activity was determined in rat brain homogenate following incubation with varying concentrations of the multifunctional pro-chelators of the invention (also referred to herein as “carbamates”). Ellman's colorimetric method was adapted for determination of total cholinesterase (ChE) and butyrylcholinesterase (BuChE) activities in rat brain homogenates. […] The results are the mean SEM, n=3 in triplicates. ND—not determined.
pIC50: −log10 of the molar value.

# SMILES RECORD, pIC50
measured = [
    ("C#CCN(C)Cc1ccc(OC(=O)N2CCN(Cc3ccccc3)CC2)c2ncccc12", 4.34),
    ("C#CCC1CCN(Cc2ccc(OC(=O)N(C)C)c3ncccc23)CC1", 4.37),
    ("C#CCN(C)Cc1ccc(OC(=O)N2CCCC2)c2ncccc12", 4.51),
    ("C#CCN(C)Cc1ccc(OC(=O)N(C)CC)c2ncccc12", 4.22),
    ("C#CCN(C)Cc1ccc(OC(=O)N2CCCCC2)c2ncccc12", 4.34),
]

====

# TARGET OF ASSAY: rat brain MAO-A (Rattus norvegicus, UniProt P21396)
# Construct: from tissue; host or cells: rat brain homogenate
# Sequence (P21396 1-526): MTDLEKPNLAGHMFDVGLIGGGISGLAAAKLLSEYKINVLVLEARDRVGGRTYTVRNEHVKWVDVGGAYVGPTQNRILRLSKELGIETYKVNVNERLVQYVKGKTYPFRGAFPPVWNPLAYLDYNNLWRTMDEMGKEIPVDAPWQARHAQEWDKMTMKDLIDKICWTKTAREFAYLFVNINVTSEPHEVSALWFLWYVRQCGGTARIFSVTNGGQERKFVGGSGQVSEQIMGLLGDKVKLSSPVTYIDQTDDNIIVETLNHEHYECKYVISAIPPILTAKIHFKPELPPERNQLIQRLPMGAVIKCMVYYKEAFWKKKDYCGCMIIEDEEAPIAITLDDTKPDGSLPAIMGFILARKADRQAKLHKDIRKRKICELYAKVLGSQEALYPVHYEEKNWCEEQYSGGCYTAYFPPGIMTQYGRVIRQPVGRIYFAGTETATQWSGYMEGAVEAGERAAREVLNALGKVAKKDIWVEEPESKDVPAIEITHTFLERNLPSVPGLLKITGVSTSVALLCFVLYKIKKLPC
# RUN DESCRIPTION: biochemical
# CONDITION DESCRIPTION: IC50 MAO-A, rat brain homogenate in vitro; mean SEM, n=3 in triplicates

# SMILES RECORD, TARGET OF ASSAY, IC50
measured = [
    ("C#CCN(C)Cc1ccc(OC(=O)N(C)CC)c2ncccc12", "rat brain MAO-A (Rattus norvegicus, UniProt P21396)", "< 100 nM"),
    ("C#CCN(C)Cc1ccc(OC(=O)NCCCCCC)c2ncccc12", "rat brain MAO-A (Rattus norvegicus, UniProt P21396)", "< 100 nM"),
    ("C#CCN(C)Cc1ccc(OC(=O)N(C)C)c2ncccc12", "rat brain MAO-A (Rattus norvegicus, UniProt P21396)", "< 100 nM"),
]
